protocolDescription: Mammalian cytotoxicity, kidney epithelial
Type: cell-based
particulars: normal human renal proximal tubule cells; read-out: Selectivity, Mammalian cytotoxicity (IC50; μM) Kidney epithelial
observedProperty: IC50

In [3]: df
Out[3]:
                                    compound  assayvalue
 0        NC1=Nc2ccc(Cl)cc2[C@@]1(O)c1ccccc1    > 242 µM
 1  CC(C)C1(O)C(N)=Nc2ccc(Cl)cc21 (stereo not drawn)   > 62.5 µM
 2  CC(C)Oc1ccccc1C1(O)C(N)=Nc2ccc(Cl)cc21 (stereo not drawn)    > 188 µM
 3  NC1=Nc2ccc(Cl)cc2C1(O)Cc1ccccc1 (stereo not drawn)   > 62.5 µM
 4  CCOc1ccc(F)cc1[C@@]1(O)C(N)=Nc2ccc(Cl)cc21 (stereo in doubt)    > 195 µM
 5  CCOc1ccc(F)cc1C1(O)C(N)=Nc2ccc(Cl)cc21 (racemic)    > 195 µM
 6  Cc1ccc2c(c1)C(O)(c1ccccc1)C(N)=N2 (stereo not drawn)   > 62.5 µM
 7  NC1=Nc2ccc(Cl)cc2C1(O)c1ccccc1 (stereo not drawn)    > 242 µM
 8  CCOc1ccc(F)cc1[C@]1(O)C(N)=Nc2ccc(Cl)cc21 (stereo in doubt)    > 195 µM
 9         NC1=Nc2ccc(Cl)cc2[C@]1(O)c1ccccc1    > 242 µM
10  COc1cc(C2(O)C(N)=Nc3ccc(Cl)cc32)c(OC)cn1 (stereo not drawn)    > 195 µM
11  NC1=Nc2ccc(Cl)cc2C1(O)c1cccc2ccccc12 (stereo not drawn)       24 µM
